Where do these numbers come from? They come from patent US20240083879A1.

target.or.test.system: hSTING (Homo sapiens (Human), UniProt Q86WV6, G230A/R293Q/R71H)
Sequence (Q86WV6 whole entry R71H/G230A/R293Q): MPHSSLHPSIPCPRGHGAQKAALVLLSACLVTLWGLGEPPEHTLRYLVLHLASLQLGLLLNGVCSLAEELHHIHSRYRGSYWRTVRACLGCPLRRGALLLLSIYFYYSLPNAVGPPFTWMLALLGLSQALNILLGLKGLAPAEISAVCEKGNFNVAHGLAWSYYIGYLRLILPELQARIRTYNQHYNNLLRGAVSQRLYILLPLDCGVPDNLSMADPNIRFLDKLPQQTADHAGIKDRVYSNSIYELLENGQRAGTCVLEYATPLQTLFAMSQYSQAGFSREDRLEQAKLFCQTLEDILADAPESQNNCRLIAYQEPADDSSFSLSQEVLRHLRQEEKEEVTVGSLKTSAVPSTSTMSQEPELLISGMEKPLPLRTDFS
assay.procedure: STING reporter assay (luciferase) in THP1-Dual KO-IFNAR2 cells stimulated with 2'3'cGAMP
study.conditions: 15 μM 2'3'cGAMP, 24 h
Protocol: STING pathway activation by the compounds described herein was measured using THP1-Dual™ cells (KO-IFNAR2). […] 2 mL of solution A and 2 ml Solution B was mixed and incubated for 20 min at room temperature (RT). […] Luciferase reporter activity was then measured. EC50 values were calculated by using standard methods known in the art. […] Luciferase reporter activity was then measured. EC50 values were calculated by using standard methods known in the art.
A collection of molecules and their measured EC50

CCc1ccc(-n2cc(-c3ccc4[nH]cc(NC(=O)C(=O)NC5CCOC5)c4c3)cn2)cc1 (stereo not shown)    200 to 1000 nM
CCc1ccc(-n2cc(-c3ccc4[nH]cc(NC(=O)C(=O)NC(C)C)c4c3)cn2)cc1    200 to 1000 nM
CCc1ccc(-n2cc(-c3ccc4[nH]cc(NC(=O)C(=O)N(C)C)c4c3)cn2)cc1    200 to 1000 nM
CCc1ccc(-n2cc(-c3ccc4[nH]cc(NC(=O)C(=O)NCCOC)c4c3)cn2)cc1    200 to 1000 nM
CNC(=O)C(=O)Nc1c[nH]c2ccc(-c3cccc(C4CC4)c3)cc12    5000 to 100000 nM
CNC(=O)C(=O)Nc1c[nH]c2ccc(-c3cnn(-c4ccc(C(F)(F)F)cc4)c3)cc12    200 to 1000 nM
CCc1ccc(-n2cc(-c3ccc4[nH]cc(NC(=O)C(=O)NC5CCC5)c4c3)cn2)cc1    200 to 1000 nM
CCc1ccc(-n2cc(-c3ccc4[nH]cc(NC(=O)C(=O)NCC(F)(F)F)c4c3)cn2)cc1    200 to 1000 nM
CCc1ccc(-n2cc(-c3ccc4[nH]cc(NC(=O)C(=O)N[C@H]5C[C@H](OC)C5)c4c3)cn2)cc1    200 to 1000 nM
CO[C@H]1C[C@H](NC(=O)C(=O)Nc2c[nH]c3ccc(-c4cnn(-c5ccc(C(F)(F)F)cc5)c4)cc23)C1    200 to 1000 nM

Which measured EC50 belongs to `CCc1ccc(-n2cc(-c3ccc4[nH]cc(NC(=O)C(N)=O)c4c3)cn2)cc1` , tested on hSTING (Homo sapiens (Human), UniProt Q86WV6, G230A/R293Q/R71H)?
200 to 1000 nM

Which measured EC50 belongs to `CNC(=O)C(=O)Nc1c[nH]c2ccc(-c3cnn(-c4ccccc4Cl)c3)cc12` , tested on hSTING (Homo sapiens (Human), UniProt Q86WV6, G230A/R293Q/R71H)?
1000 to 5000 nM

Which measured EC50 belongs to `CCc1ccc(-n2cc(-c3ccc4[nH]cc(NC(=O)C(=O)NC5CCCC5)c4c3)cn2)cc1` , tested on hSTING (Homo sapiens (Human), UniProt Q86WV6, G230A/R293Q/R71H)?
200 to 1000 nM

Which measured EC50 belongs to `CCc1ccc(-n2cc(-c3ccc4[nH]cc(NC(=O)C(=O)N5CCN(C(C)=O)CC5)c4c3)cn2)cc1` , tested on hSTING (Homo sapiens (Human), UniProt Q86WV6, G230A/R293Q/R71H)?
200 to 1000 nM

Which measured EC50 belongs to `O=C(Nc1c[nH]c2ccc(-c3cnn(-c4ccc(C(F)(F)F)cc4)c3)cc12)C(=O)NC1COC1` , tested on hSTING (Homo sapiens (Human), UniProt Q86WV6, G230A/R293Q/R71H)?
200 to 1000 nM

Which measured EC50 belongs to `CNC(=O)C(=O)Nc1c[nH]c2ccc(-c3cnn(-c4cccc(Cl)c4)c3)cc12` , tested on hSTING (Homo sapiens (Human), UniProt Q86WV6, G230A/R293Q/R71H)?
1000 to 5000 nM
